Provenance of the data: patent US20260139055A1

# System name: canine FcRn complex (FcRn-alpha subunit and beta-microglobulin), His-tagged, biotin labeled (canine)
# Protocol notes: SPR (Biacore), biotin-FcRn captured on SA surface, IgG flowed over, pH 6, 15 C
Experimental endpoint: pKd
// returns pKd (minus log10 of molar concentration), number only

// solved cases for pKd follow
Binder	pKd
canine IgGB (65) mAb with mutation D312E (antibody, part only; not given: Variable domains, not shown: another chain or arm of the molecule) constant: ASTTAPSVFPLAPSCGSTSGSTVALACLVSGYFPEPVTVSWNSGSLTSGVHTFPSVLQSSGLYSLSSMVTVPSSRWPSETFTCNVAHPASKTKVDKPVPKRENGRVPRPPDCPKCPAPEMLGGPSVFIFPPKPKDTLLIARTPEVTCVVVDLDPEDPEVQISWFVDGKQMQTAKTQPREEQFNGTYRVVSVLPIGHQEWLKGKQFTCKVNNKALPSPIERTISKARGQAHQPSVYVLPPSREELSKNTVSLTCLIKDFFPPDIDVEWQSNGQQEPESKYRTTPPQLDEDGSYFLYSKLSVDKSRWQRGDTFICAVMHEALHNHYTQESLSHSPGK	7.85
canine IgGB (65) mAb with mutation A426W (antibody, part only; not given: variable domains of unnamed mAb, not shown: another chain or arm of the molecule) constant: ASTTAPSVFPLAPSCGSTSGSTVALACLVSGYFPEPVTVSWNSGSLTSGVHTFPSVLQSSGLYSLSSMVTVPSSRWPSETFTCNVAHPASKTKVDKPVPKRENGRVPRPPDCPKCPAPEMLGGPSVFIFPPKPKDTLLIARTPEVTCVVVDLDPEDPEVQISWFVDGKQMQTAKTQPREEQFNGTYRVVSVLPIGHQDWLKGKQFTCKVNNKALPSPIERTISKARGQAHQPSVYVLPPSREELSKNTVSLTCLIKDFFPPDIDVEWQSNGQQEPESKYRTTPPQLDEDGSYFLYSKLSVDKSRWQRGDTFICWVMHEALHNHYTQESLSHSPGK	8.41
canine IgGB (65) mAb with mutation D312M (antibody, part only; not given: Variable domains, not shown: another chain or arm of the molecule) constant: ASTTAPSVFPLAPSCGSTSGSTVALACLVSGYFPEPVTVSWNSGSLTSGVHTFPSVLQSSGLYSLSSMVTVPSSRWPSETFTCNVAHPASKTKVDKPVPKRENGRVPRPPDCPKCPAPEMLGGPSVFIFPPKPKDTLLIARTPEVTCVVVDLDPEDPEVQISWFVDGKQMQTAKTQPREEQFNGTYRVVSVLPIGHQMWLKGKQFTCKVNNKALPSPIERTISKARGQAHQPSVYVLPPSREELSKNTVSLTCLIKDFFPPDIDVEWQSNGQQEPESKYRTTPPQLDEDGSYFLYSKLSVDKSRWQRGDTFICAVMHEALHNHYTQESLSHSPGK	7.79

get_value(item= canine IgGB (65) mAb with mutation Y436M (antibody, part only; not given: Variable domains, not shown: another chain or arm of the molecule) constant: ASTTAPSVFPLAPSCGSTSGSTVALACLVSGYFPEPVTVSWNSGSLTSGVHTFPSVLQSSGLYSLSSMVTVPSSRWPSETFTCNVAHPASKTKVDKPVPKRENGRVPRPPDCPKCPAPEMLGGPSVFIFPPKPKDTLLIARTPEVTCVVVDLDPEDPEVQISWFVDGKQMQTAKTQPREEQFNGTYRVVSVLPIGHQDWLKGKQFTCKVNNKALPSPIERTISKARGQAHQPSVYVLPPSREELSKNTVSLTCLIKDFFPPDIDVEWQSNGQQEPESKYRTTPPQLDEDGSYFLYSKLSVDKSRWQRGDTFICAVMHEALHNHMTQESLSHSPGK , readout=pKd) returns 8.02
